# tgt: CDK9/cyclinT1 complex (Homo sapiens, UniProt P50750)
# Sequence (P50750 whole entry, species assumed): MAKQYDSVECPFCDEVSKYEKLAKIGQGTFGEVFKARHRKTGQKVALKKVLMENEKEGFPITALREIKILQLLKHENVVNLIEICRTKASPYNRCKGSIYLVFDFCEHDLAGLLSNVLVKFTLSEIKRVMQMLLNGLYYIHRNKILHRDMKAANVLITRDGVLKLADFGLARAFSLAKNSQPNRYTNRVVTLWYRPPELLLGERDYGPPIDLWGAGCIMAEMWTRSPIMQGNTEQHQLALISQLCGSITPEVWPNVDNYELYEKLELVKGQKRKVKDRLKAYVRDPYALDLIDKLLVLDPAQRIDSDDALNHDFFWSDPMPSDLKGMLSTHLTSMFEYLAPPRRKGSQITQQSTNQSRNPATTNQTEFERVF
# Sequence (O60563 whole entry partner, species assumed): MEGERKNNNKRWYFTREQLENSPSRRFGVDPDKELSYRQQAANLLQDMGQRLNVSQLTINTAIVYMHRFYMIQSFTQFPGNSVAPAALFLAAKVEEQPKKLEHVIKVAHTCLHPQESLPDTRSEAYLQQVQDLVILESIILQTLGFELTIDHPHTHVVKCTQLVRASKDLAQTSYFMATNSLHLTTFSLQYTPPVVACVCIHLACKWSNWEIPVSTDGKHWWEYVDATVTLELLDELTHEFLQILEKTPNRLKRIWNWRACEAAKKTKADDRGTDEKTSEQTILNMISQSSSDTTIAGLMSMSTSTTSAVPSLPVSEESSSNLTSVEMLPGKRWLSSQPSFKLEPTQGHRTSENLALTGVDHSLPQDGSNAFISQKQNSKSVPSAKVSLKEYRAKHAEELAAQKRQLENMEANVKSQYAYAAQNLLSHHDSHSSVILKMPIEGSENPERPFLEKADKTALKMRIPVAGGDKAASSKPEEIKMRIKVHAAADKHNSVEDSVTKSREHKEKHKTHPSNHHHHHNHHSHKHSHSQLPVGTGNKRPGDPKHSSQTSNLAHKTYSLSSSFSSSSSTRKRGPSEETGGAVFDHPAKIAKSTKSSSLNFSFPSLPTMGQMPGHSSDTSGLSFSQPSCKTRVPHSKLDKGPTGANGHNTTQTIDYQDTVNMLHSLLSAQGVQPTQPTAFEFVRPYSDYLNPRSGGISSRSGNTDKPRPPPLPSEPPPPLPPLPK
# procedure_summary: In-vitro enzymatic inhibitory activity testing, CDK9 inhibition assay (Caliper EZ Reader II)
# conditions_used: CDK9/cyclinT1 8 nM, 180 min at 27° C.
pIC50: −log10 of the molar value.
outcome_measure: pIC50

[Q] Quick one: pIC50 of "C[C@H](O)CNc1ncc(C(F)(F)F)c(-c2c[nH]c3c(P(C)(C)=O)cccc23)n1" ?
[A] < 4.30

[Q] # pIC50 lookup, item "CP(C)(=O)c1c(C#N)ccc2c(-c3nc(N[C@@H]4CCC45CNC5)ncc3C(F)(F)F)c[nH]c12"
[A] < 4.30

[Q] pIC50 for "CP(C)(=O)c1cccc2c(-c3nc(N[C@H]4CC[C@H](N)C4)ncc3C(F)(F)F)c[nH]c12" ?
[A] 5.30 to 6.70

[Q] What value of pIC50 has been recorded for this entry: "CN(C)[C@H]1CC[C@H](Nc2ncc(C(F)(F)F)c(-c3c[nH]c4c(P(C)(C)=O)cccc34)n2)C1"
[A] 4.30 to 5.30

[Q] Form field: reported pIC50 of "CC[C@](C)(CO)Nc1ncc(C(F)(F)F)c(-c2c[nH]c3c(P(C)(C)=O)cccc23)n1"
[A] < 4.30

[Q] Give its pIC50 value. Item: "CP(C)(=O)c1cccc2c(-c3nc(NCCCO)ncc3C(F)(F)F)c[nH]c12"
[A] < 4.30

[Q] pIC50 for "CP(C)(=O)c1cccc2c(-c3nc(NC[C@H]4C[C@H]4CO)ncc3C(F)(F)F)c[nH]c12" ?
[A] < 4.30

[Q] Item FC(F)(F)c1cnc(NC2CCC3(CCNCC3)C2)nc1-c1c[nH]c2nc(N3CCOCC3)ccc12 (stereo not drawn) has what recorded pIC50?
[A] 4.30 to 5.30

[Q] Need pIC50, item FC(F)(F)c1cnc(NC2CCCNCC2)nc1-c1c[nH]c2nc(N3CCOCC3)ccc12 (stereo not drawn) [Compound 47]
[A] 4.30 to 5.30

[Q] If you can, please state the reported pIC50 value of FC(F)(F)c1cnc(NC2C3CNCC32)nc1-c1c[nH]c2nc(N3CCOCC3)ccc12 (stereo not drawn) .
[A] 4.30 to 5.30

[Q] What value of pIC50 has been recorded for this entry: "C[C@@H](CO)Nc1ncc(C(N)=O)c(-c2c[nH]c3c(P(C)(C)=O)cccc23)n1"
[A] < 4.30

[Q] Please give the measured pIC50 for this compound: "Cc1cnc(N[C@@H](C)CO)nc1-c1c[nH]c2c(P(C)(C)=O)cccc12"
[A] < 4.30

[Q] What pIC50 value was documented for this compound, FC(F)(F)c1cnc(NC2COC3(CCNCC3)C2)nc1-c1c[nH]c2nc(N3CCOCC3)ccc12 (stereo not drawn) ?
[A] 4.30 to 5.30

[Q] Report pIC50 for "CP(C)(=O)c1cccc2c(-c3nc(NCC4(O)CC4)ncc3C(F)(F)F)c[nH]c12" please.
[A] < 4.30

[Q] Item CP(C)(=O)c1cccc2c(-c3nc(NC4(CO)CCOC4)ncc3C(F)(F)F)c[nH]c12 (single isomer, unassigned) [Compound 118] has what recorded pIC50?
[A] < 4.30
